From: patent US20170165337A1

system: T1, HLA-A*02:01 (human)
T1 construct: MHC class I monomer of the UV-ligand exchange assay; also called peptide-receptive MHC molecules; MHC class I
test summary: UV peptide-exchange ELISA
test readout: peptide exchange yield

Recorded results for 2 binders are shown here.
TLLQVFHLL :: 50 to 75%
TLDPNQVSL :: 20 to 50%

Each binder below has a recorded value; state its peptide exchange yield.
1. SLAHVAGCEL
2. ALAASALPALV

1: 50 to 75%; 2: 50 to 75%
